- System under test: B2-AR (Homo sapiens, UniProt P07550)
- Construct: expressed in transfected cells; host or cells: CHO-K1
- Sequence (P07550 whole entry, species assumed): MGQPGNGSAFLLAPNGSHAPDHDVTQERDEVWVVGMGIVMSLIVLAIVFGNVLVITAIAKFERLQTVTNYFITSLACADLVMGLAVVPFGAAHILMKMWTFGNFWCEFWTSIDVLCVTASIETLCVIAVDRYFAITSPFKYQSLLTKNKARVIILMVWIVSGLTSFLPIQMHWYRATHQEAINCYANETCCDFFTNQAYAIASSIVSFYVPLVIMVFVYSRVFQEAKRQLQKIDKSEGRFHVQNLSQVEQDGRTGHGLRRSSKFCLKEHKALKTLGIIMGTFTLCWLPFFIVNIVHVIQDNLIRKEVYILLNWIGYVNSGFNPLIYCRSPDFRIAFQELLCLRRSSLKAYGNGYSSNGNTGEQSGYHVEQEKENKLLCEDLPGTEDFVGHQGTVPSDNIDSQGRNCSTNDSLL
- Procedure summary: cAMP Gs dynamic HTRF assay, cells expressing beta-adrenergic receptor (CHO-K1), B2-AR
- Format: cell-based
- Study conditions: CHO-K1 cells, cAMP HTRF; read-out: pEC50 [B2-AR] (converted)
Task for the reader: assign each of the following compounds its reported EC50.

Compound	Data value
CC(C)CNC[C@H](O)c1cc(C#N)cc2[nH]ncc12	0.1 to 1 µM
CC(C)(NC[C@H](O)c1cc(C#N)cc2[nH]ncc12)C1CC1	0.01 to 0.1 µM
CC[C@H](C)NC[C@H](O)c1cccc2[nH]nc(F)c12	< 0.01 µM
CC1C(=O)Nc2cccc([C@@H](O)CNC(C)(C)C)c21 (stereo partly shown)	> 1 µM
CC(C)(C)CNC[C@H](O)c1cccc2c1C(F)(F)C(=O)N2	0.1 to 1 µM

List EC50 for every entry below, keeping the order given.
1. CC(C)C(C)(C)NC[C@H](O)c1cccc2[nH]ncc12
2. CCC(C)(C)NC[C@H](O)c1cc(C#N)cc2[nH]ncc12

< 0.01 µM
0.01 to 0.1 µM

List EC50 for every entry below, keeping the order given.
1. CC(C)(C)NC[C@@H](O)c1cccc(Br)n1
2. CC(C)(C)CNC[C@H](O)c1cccc2[nH]ncc12
3. CC1(N[C@@H](CO)c2cncc3[nH]ncc23)CC1
4. CC(C)[C@@H](C)NC[C@H](O)c1cccc2[nH]ncc12
5. CC1(NC[C@H](O)c2ccc(Cl)c3[nH]ncc23)CC1
6. Cc1ncccc1[C@@H](O)CNC1CC(F)(F)C1
7. N#Cc1cc([C@@H](O)CNC2CCC2)c2cn[nH]c2c1
8. CC(C)[C@H](C)NC[C@H](O)c1cccc2[nH]ncc12

["> 1 µM", "< 0.01 µM", "> 1 µM", "< 0.01 µM", "< 0.01 µM", "> 1 µM", "0.01 to 0.1 µM", "< 0.01 µM"]

List EC50 for every entry below, keeping the order given.
1. Cc1ncccc1[C@@H](O)CNC1CCC1
2. CC(C)(C)NC[C@H](O)c1ccc2ncncc2c1
3. CC(C)(C)NC[C@H](O)c1ccc(N)nn1
4. CC[C@H](C)NC[C@H](O)c1cccc2[nH]ncc12
5. CC(C)c1cc([C@@H](O)CNC(C)(C)C)c2cn[nH]c2c1
6. COc1cc([C@@H](O)CNC(C)(C)C)c2cn[nH]c2c1F
7. COc1ccc(C[C@@H](C)NC[C@H](O)c2cccc3[nH]nc(F)c23)cc1

0.1 to 1 µM
0.1 to 1 µM
0.01 to 0.1 µM
< 0.01 µM
0.1 to 1 µM
0.01 to 0.1 µM
< 0.01 µM
